- ASSAY_TARGET: T1, EsCas13d, nuclease-dead (Eubacterium siraeum, UniProt B0MS50, R295A;H300A;R849A;H854A)
- T1 sequence: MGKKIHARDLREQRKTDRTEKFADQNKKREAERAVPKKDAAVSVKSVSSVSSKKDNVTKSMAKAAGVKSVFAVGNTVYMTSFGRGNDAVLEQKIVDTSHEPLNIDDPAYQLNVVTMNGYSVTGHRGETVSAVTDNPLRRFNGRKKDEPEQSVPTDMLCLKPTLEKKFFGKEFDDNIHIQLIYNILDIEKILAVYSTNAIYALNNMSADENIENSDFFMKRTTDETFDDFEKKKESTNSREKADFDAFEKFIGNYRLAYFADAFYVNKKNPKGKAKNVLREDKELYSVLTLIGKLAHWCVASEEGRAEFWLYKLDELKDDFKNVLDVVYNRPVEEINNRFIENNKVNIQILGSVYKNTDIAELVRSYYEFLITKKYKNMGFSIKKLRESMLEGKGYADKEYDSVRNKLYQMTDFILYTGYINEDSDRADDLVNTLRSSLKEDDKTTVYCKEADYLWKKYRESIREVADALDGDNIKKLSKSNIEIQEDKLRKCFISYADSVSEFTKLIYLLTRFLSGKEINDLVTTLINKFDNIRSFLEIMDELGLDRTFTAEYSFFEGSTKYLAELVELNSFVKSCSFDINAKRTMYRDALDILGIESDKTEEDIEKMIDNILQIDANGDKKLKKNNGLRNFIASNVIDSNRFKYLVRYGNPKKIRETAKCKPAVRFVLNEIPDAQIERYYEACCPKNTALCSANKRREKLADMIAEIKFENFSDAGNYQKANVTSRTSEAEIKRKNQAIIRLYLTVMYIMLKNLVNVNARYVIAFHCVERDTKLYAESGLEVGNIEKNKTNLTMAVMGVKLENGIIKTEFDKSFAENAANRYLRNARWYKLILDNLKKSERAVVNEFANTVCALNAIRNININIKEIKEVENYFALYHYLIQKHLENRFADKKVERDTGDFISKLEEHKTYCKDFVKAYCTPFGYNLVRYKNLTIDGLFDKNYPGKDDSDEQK
- METHOD_NOTES: crRNA (strand 1, pre-loaded); Mg2+; 40 mM Tris-HCl pH 7.5, 150 mM NaCl, 6 mM MgCl2, 1 mM DTT, 0.1% Tween-20, 0.2 mg/ml BSA; 25 C; 10 min per concentration, then washed
- MEASUREMENT_CONDITIONS: tags: His6-TwinStrep-SUMO cleaved; N-terminal SNAP kept (SNAP-Surface 488); label: 3' end held by stalled T7 RNA polymerase
pKd: −log10 of the molar value.
READOUT_NAME: pKd

BINDER	VALUE_REPORTED
target 1 U8C,U11A (mixed) RNA 1: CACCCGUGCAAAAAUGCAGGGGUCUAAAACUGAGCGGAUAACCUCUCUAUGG RNA 2: GGGAAUGGAUCCACAUCUACGAAUUCGUACCAUAGAGAGGAUACCCGCUCACCGAGAUCGGAAGAGCACACGU	7.49
target 2 MT 5'PFS CAC 3'PFS UCG (mixed) RNA 1: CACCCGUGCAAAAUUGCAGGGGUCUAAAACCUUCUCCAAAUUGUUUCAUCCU RNA 2: GGGAAUGGAUCCACAUCUACGAAUUCCACAGGAUGAAACAAUUUGGAGAAGUCGAGAUCGGAAGAGCACACGU	8.41
target 2 MT 5'PFS UGC 3'PFS AAC (mixed) RNA 1: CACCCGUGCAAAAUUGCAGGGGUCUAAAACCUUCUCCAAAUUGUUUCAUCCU RNA 2: GGGAAUGGAUCCACAUCUACGAAUUCUGCAGGAUGAAACAAUUUGGAGAAGAACAGAUCGGAAGAGCACACGU	7.89

Cited source for all entries: paper PMC10786891
